tested.on: TRPV1 (Homo sapiens)
Sequence (Q8NER1 whole entry, species assumed): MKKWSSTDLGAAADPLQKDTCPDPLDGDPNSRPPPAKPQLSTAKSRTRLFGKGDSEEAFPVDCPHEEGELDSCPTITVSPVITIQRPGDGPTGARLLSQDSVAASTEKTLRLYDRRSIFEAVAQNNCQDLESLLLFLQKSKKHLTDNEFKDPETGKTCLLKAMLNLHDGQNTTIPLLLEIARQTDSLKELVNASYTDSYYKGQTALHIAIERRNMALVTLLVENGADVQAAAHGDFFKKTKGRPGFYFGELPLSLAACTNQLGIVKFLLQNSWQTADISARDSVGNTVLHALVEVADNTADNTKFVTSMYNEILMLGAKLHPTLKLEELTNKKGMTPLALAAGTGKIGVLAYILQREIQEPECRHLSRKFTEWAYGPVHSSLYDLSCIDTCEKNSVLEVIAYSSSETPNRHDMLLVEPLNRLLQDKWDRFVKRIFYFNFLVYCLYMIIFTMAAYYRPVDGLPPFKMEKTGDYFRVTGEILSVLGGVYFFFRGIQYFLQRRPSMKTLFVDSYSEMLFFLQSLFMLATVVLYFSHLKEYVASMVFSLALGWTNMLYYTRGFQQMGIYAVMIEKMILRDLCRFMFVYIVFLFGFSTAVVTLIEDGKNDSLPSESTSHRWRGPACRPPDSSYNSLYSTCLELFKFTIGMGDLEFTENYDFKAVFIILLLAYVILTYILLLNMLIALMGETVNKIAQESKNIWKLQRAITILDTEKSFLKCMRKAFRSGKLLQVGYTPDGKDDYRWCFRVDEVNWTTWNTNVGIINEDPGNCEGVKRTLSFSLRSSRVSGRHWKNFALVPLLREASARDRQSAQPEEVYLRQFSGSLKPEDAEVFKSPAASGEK
test.method.notes: TRPV1 assay, capsaicin activation
value.kind: pIC50
# log scale: pIC50 equals minus log10 of the concentration in mol/L

Incoming: Recorded pIC50 of CC(C)(C)c1ccc(/C=C/C(=O)Nc2ccc3c(c2)OCCO3)cc1 , please.
Outgoing: 7.07

---

tested.on: TRPV4 (Homo sapiens, UniProt Q9HBA0)
Sequence (Q9HBA0 whole entry, species assumed): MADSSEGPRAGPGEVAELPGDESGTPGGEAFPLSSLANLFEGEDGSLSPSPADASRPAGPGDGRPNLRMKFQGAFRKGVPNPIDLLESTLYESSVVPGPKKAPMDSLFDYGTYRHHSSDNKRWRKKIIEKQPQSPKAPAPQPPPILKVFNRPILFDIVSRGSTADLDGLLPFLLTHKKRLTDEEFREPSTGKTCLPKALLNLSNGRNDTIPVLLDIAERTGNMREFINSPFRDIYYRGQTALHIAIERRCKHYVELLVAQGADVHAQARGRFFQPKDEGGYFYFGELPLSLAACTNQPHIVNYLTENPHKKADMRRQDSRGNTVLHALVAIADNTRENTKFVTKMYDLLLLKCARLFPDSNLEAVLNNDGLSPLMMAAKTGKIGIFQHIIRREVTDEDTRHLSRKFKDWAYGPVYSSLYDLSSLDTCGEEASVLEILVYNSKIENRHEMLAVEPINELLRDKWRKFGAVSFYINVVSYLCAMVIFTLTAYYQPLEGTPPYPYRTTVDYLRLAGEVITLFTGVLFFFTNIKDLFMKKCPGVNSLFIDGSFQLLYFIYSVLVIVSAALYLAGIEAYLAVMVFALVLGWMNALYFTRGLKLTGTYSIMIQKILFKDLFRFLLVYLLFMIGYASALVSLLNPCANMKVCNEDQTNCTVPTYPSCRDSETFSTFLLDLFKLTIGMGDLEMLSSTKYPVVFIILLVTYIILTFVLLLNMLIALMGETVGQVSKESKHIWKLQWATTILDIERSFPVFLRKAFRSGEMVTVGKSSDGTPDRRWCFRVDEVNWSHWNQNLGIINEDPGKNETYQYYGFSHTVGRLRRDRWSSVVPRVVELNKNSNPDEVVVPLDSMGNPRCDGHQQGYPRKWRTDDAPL
test.method.notes: TRPV4 aequorin assay, 4α-PDD activation
condition.parameters: read-out: IC50 for TRPV4; 1 μM 4α-PDD as agonist
value.kind: IC50 (nM)
I only need the number, in nM, no unit after it.

Incoming: Recorded IC50 for Cl.Cl.Cl.Cl.Cl.Cl.N.N.N.N.N.N.N.N.N.N.N.N.N.N.[O-2].[O-2].[Ru+3].[Ru+3].[Ru+4] with TRPV4 (Homo sapiens, UniProt Q9HBA0), please?
Outgoing: 24
